Entries and their measured pEC50 follow.
System: Human immunodeficiency virus 1
Test: Anti-HIV activity against drug resistant HIV-1 harboring L100I mutant infected in human MT4 cells assessed as inhibition of virus-induced cytopathic effect by MTT assay
Assay type: functional, organism-based
Conditions: Human immunodeficiency virus 1, MT4
pEC50: −log10 of the molar value.

| compound | pEC50 |
| --- | --- |
| COc1cc(OC)cc(C(N=[N+]=[N-])c2nc(SC(C)C)[nH]c(=O)c2C)c1 (stereo not drawn) | 5.58 |
| CCc1c(C(N=[N+]=[N-])c2ccc(-c3ccccc3)cc2)nc(SC(C)C)[nH]c1=O (stereo not drawn) | 5.69 |
| Cc1c(C(N=[N+]=[N-])c2ccccc2)nc(SC(C)C)[nH]c1=O (stereo not drawn) | 4.97 |
| CCc1c(C(N=[N+]=[N-])c2ccccc2)nc(SC(C)C)[nH]c1=O (stereo not drawn) | 4.91 |
| CC(C)Sc1nc(C(N=[N+]=[N-])c2ccc(Br)cc2)c(C(C)C)c(=O)[nH]1 (stereo not drawn) | 5.84 |
| CCc1c(C(N=[N+]=[N-])c2ccc(OC(F)(F)F)cc2)nc(SC(C)C)[nH]c1=O (stereo not drawn) | 4.53 |
| CCc1c(C(N=[N+]=[N-])c2cc(C)cc(C)c2)nc(SC(C)C)[nH]c1=O (stereo not drawn) | 6.01 |
| Cc1c(C(N=[N+]=[N-])c2ccc3ccccc3c2)nc(SC(C)C)[nH]c1=O (stereo not drawn) | 4.95 |
| CC(C)Sc1nc(C(N=[N+]=[N-])c2ccc3ccccc3c2)c(C(C)C)c(=O)[nH]1 (stereo not drawn) | 5.97 |
| Cc1c(C(N=[N+]=[N-])c2cccc3ccccc23)nc(SC(C)C)[nH]c1=O (stereo not drawn) | 5.28 |
| CCc1c(C(N=[N+]=[N-])c2ccc(Cl)cc2)nc(SC(C)C)[nH]c1=O (stereo not drawn) | 5.43 |
| Cc1cn([C@H]2C[C@H](N=[N+]=[N-])[C@@H](CO)O2)c(=O)[nH]c1=O | 7.92 |
| CCc1c(C(N=[N+]=[N-])c2ccc(Br)cc2)nc(SC(C)C)[nH]c1=O (stereo not drawn) | 4.98 |
| Cc1c(C(N=[N+]=[N-])c2ccc(Cl)cc2)nc(SC(C)C)[nH]c1=O (stereo not drawn) | 4.96 |
| COc1cc(OC)cc(C(N=[N+]=[N-])c2nc(SC(C)C)[nH]c(=O)c2C(C)C)c1 (stereo not drawn) | 4.99 |
| Cc1cc(C)cc(C(N=[N+]=[N-])c2nc(SC(C)C)[nH]c(=O)c2C)c1 (stereo not drawn) | 5.98 |
| CCc1c(C(N=[N+]=[N-])c2cccc3ccccc23)nc(SC(C)C)[nH]c1=O (stereo not drawn) | 5.04 |
| CCc1c(C(N=[N+]=[N-])c2ccc(C)cc2)nc(SC(C)C)[nH]c1=O (stereo not drawn) | 6.89 |
